The reported numbers originate from patent US4992581A.

tested on: U-46619-induced platelet aggregation (rat platelet rich plasma); assay: Inhibition of U-46619-induced platelet aggregation in vitro in rat platelet rich plasma; format: cell-based; settings: Rattus norvegicus, Platelet, vehicle ETOH; rat PRP
PROPERTY_LABEL: pIC50
In simple prose, pIC50 is minus the logarithm base ten of a concentration in moles per litre.

Which pIC50 reading was recorded for the molecule CC(=NNC(=S)Nc1ccccc1)[C@@H]1[C@H]2CC[C@H](C2)[C@H]1C/C=C\CCCC(=O)O (relative stereo) ?
6.59
